Recorded measurements of log10(Cli mouse), one per entry
Experimental context: female, CD1, mouse, pH 7.4
Assay metric: log10(Cli mouse) (log10 of the value in mL.min^–1.g^–1)

COC(=O)c1sc(N2CCOCC2)cc1OCCc1ccccc1 :: 1.70
NC(=O)c1sc(-n2cnc3ccccc32)cc1OCCc1ccccc1 :: 1.45
NC(=O)c1sc(N2CCOCC2)cc1OCCc1ccc(F)cc1 :: 1.11
NC(=O)c1sc(N2CCCCC2)cc1OCCc1ccccc1 :: 1.62
CC1(COc2cc(N3CCOCC3)sc2C(N)=O)COC1 :: 0.32
CNC(=O)c1sc(N2CCOCC2)cc1OCCc1ccccc1 :: 1.56
c1ccc(CCOc2csc(N3CCOCC3)c2)cc1 :: 1.57
NC(=O)c1sc(N2CCOCC2)cc1OCCc1ccccc1 :: 1.28
NC(=O)c1sc(N2CCOCC2=O)cc1OCCc1ccccc1 :: 0.85
O=C(NO)c1sc(N2CCOCC2)cc1OCCc1ccccc1 :: 0.78
NC(=O)c1sc(-c2ccncc2)cc1OCCc1ccccc1 :: 1.61
NC(=O)c1sc(N2CCOCC2)cc1OC1CCc2ccccc21 (stereo not shown) :: 0.15
NC(=O)c1sc(N2CCOCC2)cc1OC1CCCc2ccccc21 (stereo not shown) :: 0.73
NC(=O)c1cc(N2CCOCC2)ccc1OCCc1cccc(F)c1 :: 0.81
NC(=O)c1sc(N2CCOCC2)cc1OCCc1cccc(F)c1 :: 1.26
CON(C)C(=O)c1sc(N2CCOCC2)cc1OCCc1ccccc1 :: -0.30
CCNC(=O)c1sc(N2CCOCC2)cc1OCCc1ccccc1 :: 1.70
NC(=O)c1sc(N2CCOCC2)cc1CCCc1ccccc1 :: 1.30
NC(=O)c1ccc(N2CCOCC2)cc1OCCc1ccccc1 [Compound 54, 4-Morpholino-2-phenethoxybenzamide] :: 1.08
COc1cccc(CCOc2cc(N3CCOCC3)sc2C(N)=O)c1 :: 1.00
COc1ccc(CCOc2cc(N3CCOCC3)sc2C(N)=O)cc1 :: 0.76
CNC(=O)c1sc(N2CC3CC2CO3)cc1OCCc1ccccc1 (stereo not shown) :: 1.11
COc1ccccc1CCOc1cc(N2CCOCC2)sc1C(N)=O :: 1.41
N#Cc1ccc(CCOc2cc(N3CCOCC3)sc2C(N)=O)cc1 :: 0.68
NC(=O)c1sccc1OCCc1ccccc1 :: 1.41
NC(=O)c1sc(-n2nccn2)cc1OCCc1ccccc1 :: 1.48
NC(=O)c1sc(N2CCOCC2)cc1OCC1CCCO1 (stereo not shown) :: 0.63
O=C(NCC(F)(F)F)c1sc(N2CCOCC2)cc1OCCc1ccccc1 :: 1.48
CC(=O)c1sc(N2CCOCC2)cc1OCCc1ccccc1 :: 1.61
NC(=O)c1sc(N2CCOCC2)cc1OCc1ccccc1 :: 1.15
NC(=O)c1nc(N2CCOCC2)ccc1OCCc1ccccc1 :: 0.36
NC(=O)c1cc(N2CCOCC2)ccc1OCCc1ccccc1 [Compound 55, 5-Morpholino-2-(2-phenylethoxy)benzamide] :: 0.58
NC(=O)c1sc(N2CCOCC2)cc1OCCN1CCOCC1 :: -0.05
NC(=O)c1sc(CN2CCOCC2)cc1OCCc1ccccc1 :: 0.48
